Listing of recorded pED50 by entry.
- Species on record: Oryctolagus cuniculus
- protocol_text: The compound was tested in vitro for prokinetic activity as smooth muscle contractility in isolated rabbit duodenum
- Format: functional, Muscle tissue

item_smiles	result_qualifier	pED50
CC[C@H]1OC(=O)[C@H](C)[C@@H](O[C@H]2C[C@@](C)(OC)[C@@H](O)[C@H](C)O2)[C@H](C)[C@@H](O[C@@H]2O[C@H](C)C[C@H](N(C)CC)[C@H]2O)[C@@]2(C)CC(C)=C(O2)[C@H](C)[C@@H](O)[C@]1(C)O	=	8.45
CC[C@H]1OC(=O)[C@H](C)[C@@H](O[C@H]2C[C@@](C)(OC)[C@@H](O)[C@H](C)O2)[C@H](C)[C@@H](O[C@@H]2O[C@H](C)C[C@H](N(C)C)[C@H]2O)[C@](C)(O)C[C@@H](C)C(=O)[C@H](C)[C@@H](O)[C@]1(C)O	=	5.85
CC[C@H]1OC(=O)[C@H](C)[C@@H](O[C@H]2C[C@@](C)(OC)C[C@H](C)O2)[C@H](C)[C@@H](O[C@@H]2O[C@H](C)C[C@H](N(C)C)[C@H]2O)[C@@]2(C)CC(C)=C(O2)[C@H](C)[C@@H](O)[C@]1(C)O	=	8.41
CC[C@H]1OC(=O)[C@H](C)[C@@H](O[C@H]2C[C@@](C)(OC)C[C@H](C)O2)[C@H](C)[C@@H](O[C@@H]2O[C@H](C)C[C@H](NC)[C@H]2O)[C@@]2(C)CC(C)=C(O2)[C@H](C)[C@@H](O)[C@H]1C	>	12

---

- protocol_text: Oral bioavailability in dog
- Format: ADME, organism-based, Canis lupus familiaris
- condition_context: in vivo
reported_endpoint: bioavailability (%)

compound	unit_tag	numeric_result
CC[C@H]1OC(=O)[C@H](C)[C@@H](O[C@H]2C[C@@](C)(OC)C[C@H](C)O2)[C@H](C)[C@@H](O[C@@H]2O[C@H](C)C[C@H](NC)[C@H]2O)[C@@]2(C)CC(C)=C(O2)[C@H](C)[C@@H](O)[C@H]1C	%	23.8
CC[C@H]1OC(=O)[C@H](C)[C@@H](O[C@H]2C[C@@](C)(OC)[C@@H](O)[C@H](C)O2)[C@H](C)[C@@H](O[C@@H]2O[C@H](C)C[C@H](N(C)CC)[C@H]2O)[C@@]2(C)CC(C)=C(O2)[C@H](C)[C@@H](O)[C@]1(C)O	%	1.4
CC[C@H]1OC(=O)[C@H](C)[C@@H](O[C@H]2C[C@@](C)(OC)C[C@H](C)O2)[C@H](C)[C@@H](O[C@@H]2O[C@H](C)C[C@H](N(C)CC)[C@H]2O)[C@@]2(C)CC(C)=C(O2)[C@H](C)[C@@H](O)[C@]1(C)O	%	2.7
CC[C@H]1OC(=O)[C@H](C)[C@@H](O[C@H]2C[C@@](C)(OC)C[C@H](C)O2)[C@H](C)[C@@H](O[C@@H]2O[C@H](C)C[C@H](N(C)CC)[C@H]2O)[C@@]2(C)CC(C)=C(O2)[C@H](C)[C@@H](O)[C@H]1C [ALEMCINAL]	%	39

---

Listing of recorded pED50 by entry.
- Organism: Oryctolagus cuniculus
- protocol_text: The compound was tested in vitro for prokinetic activity as smooth muscle contractility in isolated rabbit duodenum
- Type: functional, Muscle tissue
reported_endpoint: pED50

item_smiles	reported_endpoint	result_qualifier	numeric_result
CC[C@H]1OC(=O)[C@H](C)[C@@H](O[C@H]2C[C@@](C)(OC)[C@@H](O)[C@H](C)O2)[C@H](C)[C@@H](O[C@@H]2O[C@H](C)C[C@H](N(C)C)[C@H]2O)[C@@]2(C)CC(C)=C(O2)[C@H](C)[C@@H](O)[C@H]1C	pED50	=	8.68
CC[C@H]1OC(=O)[C@H](C)[C@@H](O[C@H]2C[C@@](C)(OC)[C@@H](O)[C@H](C)O2)[C@H](C)[C@@H](O[C@@H]2O[C@H](C)C[C@H](N(C)C)[C@H]2O)[C@@]2(C)CC(C)=C(O2)[C@H](C)[C@@H](O)[C@]1(C)O	pED50	=	8.4
CC[C@H]1OC(=O)[C@H](C)[C@@H](O[C@H]2C[C@@](C)(OC)[C@@H](O)[C@H](C)O2)[C@H](C)[C@@H](O[C@@H]2O[C@H](C)C[C@H](NC)[C@H]2O)[C@@]2(C)CC(C)=C(O2)[C@H](C)[C@@H](O)[C@]1(C)O	pED50	=	7.1
CC[C@H]1OC(=O)[C@H](C)[C@@H](O[C@H]2C[C@@](C)(OC)C[C@H](C)O2)[C@H](C)[C@@H](O[C@@H]2O[C@H](C)C[C@H](N(C)CC)[C@H]2O)[C@@]2(C)CC(C)=C(O2)[C@H](C)[C@@H](O)[C@H]1C	pED50	>	12
CC[C@H]1OC(=O)[C@H](C)[C@@H](O[C@H]2C[C@@](C)(OC)C[C@H](C)O2)[C@H](C)[C@@H](O[C@@H]2O[C@H](C)C[C@H](N(C)CC)[C@H]2O)[C@@]2(C)CC(C)=C(O2)[C@H](C)[C@@H](O)[C@]1(C)O	pED50	=	11.15
CC[C@H]1OC(=O)[C@H](C)[C@@H](O[C@H]2C[C@@](C)(OC)C[C@H](C)O2)[C@H](C)[C@@H](O[C@@H]2O[C@H](C)C[C@H](NC)[C@H]2O)[C@@]2(C)CC(C)=C(O2)[C@H](C)[C@@H](O)[C@]1(C)O	pED50	=	9.74
CC[C@H]1OC(=O)[C@H](C)[C@@H](O[C@H]2C[C@@](C)(OC)C[C@H](C)O2)[C@H](C)[C@@H](O[C@@H]2O[C@H](C)C[C@H](N(C)C)[C@H]2O)[C@@]2(C)CC(C)=C(O2)[C@H](C)[C@@H](O)[C@H]1C	pED50	=	11.26

Source: ChEMBL document CHEMBL1128367
